- method.notes: non-specific inhibitors of H2O2 luminol chemiluminescence – biochemical, luminescence, no ALR or DTT, cherry-pick, artefact control for ALR inhibitor project, dose response (AID 540356)
- condition.description: HRP/H2O2 luminol luminescence counterscreen; series mostly up to 10 µM
In all, about 2,500 compounds went through this assay and about 360 (14%) were called active. Not all results are given here.
value.kind: AC50

Worked cases, AC50 given:
{"columns": ["compound", "value.kind", "result"],
 "data": [
  ["C=CCN1C(=O)NC(=O)/C(=C\\c2ccc(-c3ccccc3[N+](=O)[O-])o2)C1=O", "AC50", "inactive"],
  ["Cc1ccc(/C=C2\\C(=O)NC(=O)N(CCc3ccc(F)cc3)C2=O)s1", "AC50", "inactive"],
  ["O=C(O)C12C3CCCC1C32c1ccccc1 (stereo unspecified)", "AC50", "inactive"],
  ["CCCN1CCc2cccc3c2[C@H]1Cc1ccc(O)c(O)c1-3", "AC50", "9.91 µM (active)"],
  ["CCNc1ccc(P(=S)(N(C)C)N(C)C)cc1", "AC50", "inactive"],
  ["N/C(=N\\[N+](=O)[O-])N/N=C/c1ccc(O)cc1", "AC50", "inactive"],
  ["CNCCc1ccc(O)c(O)c1", "AC50", "inactive"],
  ["CC1=NN(c2ccccc2)C(=O)C1/C=C1/C(=O)NC(=O)N(c2cc(C)cc(C)c2)C1=O (stereo unspecified)", "AC50", "inactive"],
  ["CCc1ccc(N2C(=O)NC(=O)/C(=C\\C=C\\c3ccco3)C2=O)cc1", "AC50", "inactive"],
  ["Cn1c(O)c(/C=N/Nc2ccccc2)c(=O)n(C)c1=O", "AC50", "1.32 µM (active)"]
]}

Recorded AC50 for CN=C(SCc1ccccc1)c1c(O)n(C)c(=O)n(C)c1=O , please?
inactive
